Reference source for all entries: paper PMC2947205

molecular target: sigma-2 receptor (Homo sapiens); assay: Sigma-2 receptor binding; conditions: read-out: sigma-2 receptor Kd
Sequence (Q5BJF2 whole entry, species assumed): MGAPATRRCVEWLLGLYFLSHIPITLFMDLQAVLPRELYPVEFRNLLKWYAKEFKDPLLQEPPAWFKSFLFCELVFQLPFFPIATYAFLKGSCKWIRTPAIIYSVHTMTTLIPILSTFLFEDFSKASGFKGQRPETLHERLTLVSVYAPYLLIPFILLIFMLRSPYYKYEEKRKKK

Substance Smiles: CNCCc1ccc(O)cc1
Kd / µM: 6.61

###

List of pKd values.
biological target: sigma-2 receptor (Homo sapiens); experiment: Sigma-2 receptor binding
pKd: −log10 of the molar value.

Substance Smiles: NCCc1c[nH]c2ccccc12
pKd: 5.31
//
Substance Smiles: NCCc1ccccc1
pKd: 5.14
